Let's look at some compounds and their measured σ [%].
# System: σ receptors
# Experiment: Radioligand binding assay, σ receptors
# Applied conditions: rat cerebral cortex, [3H]DTG 8 nM

[
  {
    "Compound": "O=S(=O)(NC1CCN(CCCc2noc3cc(F)ccc23)CC1)c1cccc2ccccc12 [Compound 34]",
    "σ [%] (%)": 50
  },
  {
    "Compound": "O=S(=O)(NC1CN(CCOc2cccc3[nH]ccc23)C1)c1ccc2ccccc2c1 [Compound 50]",
    "σ [%] (%)": 59
  },
  {
    "Compound": "O=S(=O)(NCC1CCN(CCCc2noc3cc(F)ccc23)C1)c1ccc2cc(Cl)ccc2c1 (stereo not shown) [Compound 237]",
    "σ [%] (%)": 88
  },
  {
    "Compound": "Cc1c(S(=O)(=O)NCC2CN(CCCc3noc4cc(F)ccc34)C2)sc2ccc(F)cc12 [Compound 130]",
    "σ [%] (%)": 94
  }
]

###

# Test system: 5-HT7 receptor (Homo sapiens, UniProt P34969)
# Construct: purchased PerkinElmer
# Sequence (P34969 whole entry): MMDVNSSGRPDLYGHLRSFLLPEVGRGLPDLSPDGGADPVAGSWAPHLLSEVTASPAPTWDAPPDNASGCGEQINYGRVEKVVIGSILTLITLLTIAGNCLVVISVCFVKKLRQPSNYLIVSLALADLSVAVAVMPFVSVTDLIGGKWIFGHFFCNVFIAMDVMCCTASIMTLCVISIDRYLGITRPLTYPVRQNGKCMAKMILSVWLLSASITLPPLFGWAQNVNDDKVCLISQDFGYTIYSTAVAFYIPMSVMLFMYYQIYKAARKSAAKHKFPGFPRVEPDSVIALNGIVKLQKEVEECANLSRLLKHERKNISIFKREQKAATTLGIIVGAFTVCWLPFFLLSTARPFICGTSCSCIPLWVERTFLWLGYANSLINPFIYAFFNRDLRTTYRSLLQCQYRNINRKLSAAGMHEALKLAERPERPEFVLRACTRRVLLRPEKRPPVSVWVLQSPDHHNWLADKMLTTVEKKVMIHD
# Experiment: Radioligand binding assay, serotoninergic 5-HT7 receptors;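 note: test compound at 1 µM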
# Applied conditions: binding assay result in %, Table 5a

[
  {
    "Molecule": "O=S(=O)(NC1CCN(CCCc2c[nH]c3ccc(F)cc23)C1)c1ccc(Cl)cc1 (stereo not shown) [Compound 77]",
    "Unit of measure": "%",
    "inhibition at 1 µM": 89
  },
  {
    "Molecule": "O=S(=O)(NC1CCN(CCCc2noc3cc(F)ccc23)C1)c1ccc(-c2ccccc2)cc1 (stereo not shown) [Compound 195]",
    "Unit of measure": "%",
    "inhibition at 1 µM": 86
  },
  {
    "Molecule": "O=S(=O)(NCC1CN(CCOc2cccc3c2OCCO3)C1)c1ccc(Cl)c(Cl)c1 [Compound 183]",
    "Unit of measure": "%",
    "inhibition at 1 µM": 102
  },
  {
    "Molecule": "O=S(=O)(NCC1CN(CCOc2cccc3c2OCCO3)C1)c1cccc2ccccc12 [Compound 176]",
    "Unit of measure": "%",
    "inhibition at 1 µM": 87
  },
  {
    "Molecule": "O=S(=O)(NC1CCN(CCCc2noc3cc(F)ccc23)CC1)c1ccc(-c2ccccc2)cc1 [Compound 327]",
    "Unit of measure": "%",
    "inhibition at 1 µM": 86
  },
  {
    "Molecule": "O=S(=O)(NC1CCN(CCOc2cccc3[nH]ccc23)C1)c1ccccc1 (stereo not shown) [Compound 51]",
    "Unit of measure": "%",
    "inhibition at 1 µM": 101
  },
  {
    "Molecule": "Cc1c(S(=O)(=O)NC2CCN(CCCc3noc4cc(F)ccc34)C2)sc2ccc(F)cc12 (stereo not shown) [Compound 28]",
    "Unit of measure": "%",
    "inhibition at 1 µM": 94
  },
  {
    "Molecule": "Cn1ccc2cc(S(=O)(=O)NCC3CCN(CCOc4cccc5c4OCCO5)C3)ccc21 (stereo not shown) [Compound 308]",
    "Unit of measure": "%",
    "inhibition at 1 µM": 83
  },
  {
    "Molecule": "Cc1cc(S(=O)(=O)N[C@H]2CCN(CCCc3noc4cc(F)ccc34)C2)c(C)s1 [Compound 223]",
    "Unit of measure": "%",
    "inhibition at 1 µM": 100
  },
  {
    "Molecule": "O=S(=O)(NCC1CN(CCCc2c[nH]c3ccc(F)cc23)C1)c1ccc2ccccc2c1 [Compound 160]",
    "Unit of measure": "%",
    "inhibition at 1 µM": 75
  },
  {
    "Molecule": "O=S(=O)(NCC1CCN(CCOc2cccc3c2OCCO3)C1)c1ccc2c(c1)CCO2 (stereo not shown) [Compound 306]",
    "Unit of measure": "%",
    "inhibition at 1 µM": 94
  },
  {
    "Molecule": "O=S(=O)(NCC1CCN(CCCc2noc3cc(F)ccc23)C1)c1ccc2ccccc2c1 (stereo not shown) [Compound 240]",
    "Unit of measure": "%",
    "inhibition at 1 µM": 90
  },
  {
    "Molecule": "O=S(=O)(NCC1CN(CCCc2noc3cc(F)ccc23)C1)c1cccc(Cl)c1 [Compound 137]",
    "Unit of measure": "%",
    "inhibition at 1 µM": 82
  },
  {
    "Molecule": "O=S(=O)(NCC1CCN(CCOc2cccc3c2OCCO3)C1)c1ccc(F)cc1 (stereo not shown) [Compound 300]",
    "Unit of measure": "%",
    "inhibition at 1 µM": 90
  },
  {
    "Molecule": "O=S(=O)(N[C@H]1CCN(CCCc2noc3cc(F)ccc23)C1)c1cc2ccc(Cl)cc2s1 [Compound 199]",
    "Unit of measure": "%",
    "inhibition at 1 µM": 94
  },
  {
    "Molecule": "O=S(=O)(NCC1CN(CCOc2cccc3ccccc23)C1)c1ccc(F)c(Cl)c1 [Compound 172]",
    "Unit of measure": "%",
    "inhibition at 1 µM": 92
  }
]

These measurements were taken from patent US20140135310A1.
